// values below are reported Optical Density (OD)
- SYSTEM: Chinese variant CD1a protein (human) (UniProt P06126)
- Sequence (P06126 18-295, change not shown): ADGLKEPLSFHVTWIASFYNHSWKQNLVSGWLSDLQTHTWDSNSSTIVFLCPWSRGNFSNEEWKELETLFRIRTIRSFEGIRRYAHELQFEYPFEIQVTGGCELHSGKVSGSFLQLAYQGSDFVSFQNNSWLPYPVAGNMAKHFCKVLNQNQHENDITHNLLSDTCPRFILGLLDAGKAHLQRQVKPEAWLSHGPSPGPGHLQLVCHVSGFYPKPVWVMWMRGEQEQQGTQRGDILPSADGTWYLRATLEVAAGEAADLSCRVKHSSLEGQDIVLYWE
- MEASUREMENT_DESCRIPTION: ELISA, 0.1 µg/ml antibody
The reply must contain the numeric value and, after it, the unit.

As a guide, the following entries are already answered.
BINDER	RESULT
111 (VR12113) (antibody, V domains shown, also called OX111) VH: QSVEESGGRLVTPGTPLTLTCTASGFSLSTYAMSWVRQAPGKGLEWIGIISSSGSTYYASWAKGRFTISKTSTTVDLKITSPTTEDTATYFCARETWYWLDLWGQGTLVTVSS VL: AVEMTQTPASVSAAVGGTVTINCQASEDIYSNLAWYQQKPGQPPKLLIYGASTLASGVPSRFKGSGSGTEYTLTISGVQCDDAATYYCQCAYDSSSYGTPFGGGTEVVVK	1.52 OD
110 (VR12112) (antibody, V domains shown, also called OX110; antibody 110) VH: QSVEESGGRLVTPGTPLTLTCTVSGFSLSSYAMIWVRQAPGKGLEWIGIINSSDNTHYATWAKGRFTISKTSTTVDLKITSPTTEDTATYFCARDPYDYGYGWYFDLWGPGTLVTVSS VL: AQVLTQTPSPVSAAVGGTVTINCQASQSVFNNKNLAWYQQKPGQPPKLLIYKASTLASGVSSRFKGSGSGTQFALTISGVQCDDAATYYCQGEFSCSSTDCVTFGGGTEVVVK	1.57 OD
77A (VR11851) (antibody, V domains shown, also called OX77a; antibody 77a) VH: QSVEESGGRLVTPGTPLTLTCTVSGFSLSSYAMSWVRQAPGKGLEWIGIISSSGTTYYASWAKGRFTISKTSTTVDLKITSPTTEDTATYFCARVDYYSSGWGGLWGPGTLVTVSS VL: AVEMTQTPASMSAAVGGTVTIKCQASEDIYSNLAWYQQKPGQPPKLLIYGASTLASGVPSRFKGSGSGTEYTLTISGVQCDDAATYYCQCTYDTSSYGNTFGGGTEMVVE	1.05 OD

Give reported Optical Density (OD) value for 116 (VR12117) (antibody, V domains shown, also called OX116) VH: QSVEESGGRLVTPGTPLTLTCTVSGFSLSNYAMSWVRQAPGKGLEWIGIIYTTGFTYYASWVKGRFTISKTSTTVDLKITSPTTEDTATYFCARGLATYVSPPTRLDLWGQGTLVTVSS VL: AQVLTQTPSPVSAAVGGTVTINCQASQSIYNSKNLAWYQQKPGQPPKLLIYSASTLASGVPSRFKGSGSGTQFTLTISDLECDDAATYYCQGEFSCSSVDCATFGGGTEVVVK
1.53 OD
